Sourced from PubChem BioAssay AID1963435

system: PANC-1 complex spheroid growth, percent test/control; test: Anticancer human tumor PANC-1 cell line growth inhibition [Asc]; conditions: second compound 0.316 µM; first compound 0.0949 µM; hits give low values;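 also: spheroids exposed to agents for 7 days; percent viability relative to DMSO vehicle wells taken as 100%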
measured quantity: viability, T/C (%)
Answers are plain numbers, in %.

Example molecules with recorded viability, T/C:
molecule	measured
CCN1C(C(=O)NC23CCC(C(=O)O)(CC2)CC3)C(c2cccc(Cl)c2F)C2(C(=O)Nc3cc(Cl)ccc32)C12CCCCC2 (centres undefined) + CNC(C)C(=O)NC1CN(S(=O)(=O)c2cccc(S(=O)(=O)N3CCC4CCC(C(=O)NC(c5ccccc5)c5ccccc5)N4C(=O)C(NC(=O)C(C)NC)C3)c2)CCC2CCC(C(=O)NC(c3ccccc3)c3ccccc3)N2C1=O	106
Cc1nc(N2CCC3(CC2)COC(C)C3N)c(CO)nc1Sc1ccnc(N)c1Cl (centres undefined) + CNC(C)C(=O)NC1CN(S(=O)(=O)c2cccc(S(=O)(=O)N3CCC4CCC(C(=O)NC(c5ccccc5)c5ccccc5)N4C(=O)C(NC(=O)C(C)NC)C3)c2)CCC2CCC(C(=O)NC(c3ccccc3)c3ccccc3)N2C1=O	86.7
NC(=O)C(=Cn1cnc(-c2cc(C(F)(F)F)cc(C(F)(F)F)c2)n1)c1cncnc1 + Cc1c(S(C)(=O)=O)c(-c2cc(F)cc(N3CCN(c4ccc(NS(=O)(=O)c5ccc(NC(CCN6CCC(C(=O)OCCCP(=O)(O)O)CC6)CSc6ccccc6)c(S(=O)(=O)C(F)(F)F)c5)cc4)CC3)c2)c(-c2ccc(Cl)cc2)n1C(C)C	122

Then there is this molecule:
Quick one: viability, T/C of CCN1C(C(=O)NC23CCC(C(=O)O)(CC2)CC3)C(c2cccc(Cl)c2F)C2(C(=O)Nc3cc(Cl)ccc32)C12CCCCC2 (centres undefined) + Cc1c(S(C)(=O)=O)c(-c2cc(F)cc(N3CCN(c4ccc(NS(=O)(=O)c5ccc(NC(CCN6CCC(C(=O)OCCCP(=O)(O)O)CC6)CSc6ccccc6)c(S(=O)(=O)C(F)(F)F)c5)cc4)CC3)c2)c(-c2ccc(Cl)cc2)n1C(C)C ?
105
